experimental details: Protease stability in simulated intestinal fluids (FaSSIF) (Table 7)
Type: in vitro ADME
condition notes: fassif with pancreatin, 60 min, 37° C., read-out: Remaining percentage of peptide compound, FaSSIF 60 (min)
Bridge positions count the residues as written; N and C are the ends. Square brackets hold non-standard residues; d marks the D form. Peptide text beside a SMILES is read from it. * marks the point of attachment. Trp(7-Me) = Cc1cccc2c(C[C@H](N)C(=O)O)c[nH]c12; 2Nal = N[C@@H](Cc1ccc2ccccc2c1)C(=O)O; 3Pal = N[C@@H](Cc1cccnc1)C(=O)O; Thp = NC1(C(=O)O)CCOCC1; Me2NCH2CH2 = CN(C)CC*; Aib = CC(C)(N)C(=O)O; Aoc = NCCCCCCCC(=O)O; Sar = CNCC(=O)O
readout name: remaining at 1 h, 1 µM (%)
Please give a number only; it is taken to be in %.

Quick one: remaining at 1 h, 1 µM for Cc1cccc2c(C[C@@H]3NC(=O)CCCCCCCNC(=O)CC[C@@H](C(=O)N[C@@H](CC(N)=O)C(=O)N[C@@H](Cc4cccnc4)C(=O)N(C)CC(N)=O)NC(=O)C(C)(C)NC(=O)[C@H](Cc4ccc5ccccc5c4)NC(=O)[C@H](Cc4ccc(OCCN(C)C)cc4)NC(=O)C4(CCOCC4)NC(=O)[C@H](CCC(N)=O)NC3=O)c[nH]c12 [compound 6] ([Aoc][Trp(7-Me)]Q[Thp]Y(Me2NCH2CH2)[2Nal][Aib]EN[3Pal][Sar]-NH2; lactam N-8) ?
86

* * *

experimental details: Solubility of peptide compounds in buffer formulations (Table 5)
Format: physicochemical
condition notes: Buffer pH 1.1 (head; method: 50 mM HCl pH 1.2), 2 h agitation, target 1 mg/ml; read-out: Solubility, Buffer pH 1.1
Numbered stars: 1 amine (or outer) side, 2 acyl side, 3 side chain; on linkers, the order of the positions; unused ones are H or OH. Bridge positions count the residues as written; N and C are the ends. Square brackets hold non-standard residues; d marks the D form. Peptide text beside a SMILES is read from it. * marks the point of attachment. Trp(7-Me) = Cc1cccc2c(C[C@H](N)C(=O)O)c[nH]c12; 2Nal = N[C@@H](Cc1ccc2ccccc2c1)C(=O)O; X1 = O=C(CCCCCCCCCCCCCN[*:1])[*:2]; 3Pal = N[C@@H](Cc1cccnc1)C(=O)O; Thp = NC1(C(=O)O)CCOCC1; Me2NCH2CH2 = CN(C)CC*; Aib = CC(C)(N)C(=O)O; Sar = CNCC(=O)O
readout name: solubility at 2 h

Quick one: solubility at 2 h for Cc1cccc2c(C[C@@H]3NC(=O)CCCCCCCCCCCCCNC(=O)CC[C@@H](C(=O)N[C@@H](CC(N)=O)C(=O)N[C@@H](Cc4cccnc4)C(=O)N(C)CC(N)=O)NC(=O)C(C)(C)NC(=O)[C@H](Cc4ccc5ccccc5c4)NC(=O)[C@H](Cc4ccc(OCCN(C)C)cc4)NC(=O)C4(CCOCC4)NC(=O)[C@H](CCC(N)=O)NC3=O)c[nH]c12 [compound 1] ([X1][Trp(7-Me)]Q[Thp]Y(Me2NCH2CH2)[2Nal][Aib]EN[3Pal][Sar]-NH2; lactam N-8) ?
≥ 920 µg/mL

* * *

experimental details: Chemical stability (relative purity loss) of peptide compounds in buffer formulations (Table 6)
Assay type: physicochemical
condition notes: 50 mM phosphate buffer pH 7.4 + acetonitrile (3:1), 2° C. and 37° C., read-out: Chemical stability (relative purity loss), Buffer pH 7.4
Bridge positions count the residues as written; N and C are the ends. Square brackets hold non-standard residues; d marks the D form. Peptide text beside a SMILES is read from it. * marks the point of attachment. Trp(7-Me) = Cc1cccc2c(C[C@H](N)C(=O)O)c[nH]c12; 2Nal = N[C@@H](Cc1ccc2ccccc2c1)C(=O)O; d2Nal = N[C@H](Cc1ccc2ccccc2c1)C(=O)O; 3Pal = N[C@@H](Cc1cccnc1)C(=O)O; Aun = NCCCCCCCCCCC(=O)O; Thp = NC1(C(=O)O)CCOCC1; Me2NCH2CH2 = CN(C)CC*; Aib = CC(C)(N)C(=O)O; Sar = CNCC(=O)O
readout name: degraded at 24 h (%)
Please give a number only; it is taken to be in %.

[[record]]
molecule = "Cc1cccc2c(C[C@@H]3NC(=O)CCCCCCCCCCNC(=O)CC[C@@H](C(=O)N[C@@H](CC(N)=O)C(=O)N[C@@H](Cc4cccnc4)C(=O)N(C)CC(N)=O)NC(=O)C(C)(C)NC(=O)[C@H](Cc4ccc5ccccc5c4)NC(=O)[C@H](Cc4ccc(OCCN(C)C)cc4)NC(=O)C4(CCOCC4)NC(=O)[C@H](CC(C)C)NC3=O)c[nH]c12 [compound 7] ([Aun][Trp(7-Me)]L[Thp]Y(Me2NCH2CH2)[2Nal][Aib]EN[3Pal][Sar]-NH2; lactam N-8)"
readout_unit = "%"
numeric_result = 0.5


Now look at this one.
Quick one: degraded at 24 h for Cc1cccc2c(C[C@@H]3NC(=O)CCCCCCCCCCNC(=O)CC[C@@H](C(=O)N[C@@H](CC(N)=O)C(=O)N[C@@H](Cc4cccnc4)C(=O)N(C)CC(N)=O)NC(=O)C(C)(C)NC(=O)[C@@H](Cc4ccc5ccccc5c4)NC(=O)[C@H](Cc4ccc(OCCN(C)C)cc4)NC(=O)C4(CCOCC4)NC(=O)[C@H](CCC(N)=O)NC3=O)c[nH]c12 [compound 4] ([Aun][Trp(7-Me)]Q[Thp]Y(Me2NCH2CH2)[d2Nal][Aib]EN[3Pal][Sar]-NH2; lactam N-8) ?
0
